Where these numbers come from: PubChem BioAssay (Tox21)

# protocol.notes: qHTS assay to identify small molecule phospholipidosis (PLD) inducers (AID 1259344)
# settings: HepG2 phospholipidosis, LipidTOX Red imaging, 24 h; series mostly up to 38.3 µM
Inconclusive results are not listed. The source made the active and inactive calls. The call rests on the fitted dose curve; in most records, active means well fitted activation curve with a large enough effect; inconclusive means small, poorly fitted or top-dose-only effect; inactive means flat fitted curve, though single readings scatter.
Outcomes: y (active), n (inactive)

>>> class_name("CC(=O)OCC(CCn1cnc2cnc(N)nc21)COC(C)=O")
"n"
>>> class_name("NC(CSCC(=O)O)C(=O)O (centres undefined)")
"n"
>>> class_name("O=c1[nH]c(=O)n([C@H]2C[C@H](O)[C@@H](CO)O2)cc1I")
"n"
>>> class_name("Oc1ccc(C2CNCCc3c2cc(O)c(O)c3Cl)cc1 (centres undefined)")
"n"
>>> class_name("COc1ccc(CCN(C)CCCC(C#N)(c2cc(OC)c(OC)c(OC)c2)C(C)C)cc1OC (centres undefined)")
"y"
>>> class_name("FC1(F)C(F)(F)C(F)(F)C2(F)C(F)(F)C(F)(F)C(F)(F)C(F)(F)C2(F)C1(F)F (centres undefined)")
"n"
>>> class_name("CC(=O)OCC(=O)[C@@]1(O)CC[C@H]2[C@@H]3CCC4=CC(=O)CC[C@]4(C)[C@H]3C(=O)C[C@@]21C")
"n"
>>> class_name("N[C@H]1CN(c2c(F)cc3c(=O)c(C(=O)O)cn(C4C[C@H]4F)c3c2Cl)CC12CC2 (some centres undefined)")
"n"
>>> class_name("C[N+](C)(C)CCCCCC[N+](C)(C)C")
"n"
>>> class_name("CCn1ccnc1CC1COc2ccccc2O1 (centres undefined)")
"n"
>>> class_name("Nc1c2c(nc3ccccc13)CCCC2O (centres undefined)")
"n"
>>> class_name("CC(C(=O)O)c1ccc(CC2CCCC2=O)cc1 (centres undefined)")
"n"
>>> class_name("COc1ccccc1OCC(O)CN1CCN(CC(=O)Nc2c(C)cccc2C)CC1 (centres undefined)")
"n"
>>> class_name("Cc1ccc(=O)n(-c2ccccc2)c1")
"n"
>>> class_name("COC(=O)C1=C(C)NC(C)=C(C(=O)OC)C1c1ccccc1[N+](=O)[O-]")
"n"
>>> class_name("O=C1NC(=O)[C@@]2(CCOc3ccc(F)cc32)N1")
"n"
>>> class_name("NCCc1cnc[nH]1")
"n"
>>> class_name("CC(C)(C)c1ccc(O)c(O)c1")
"n"
>>> class_name("CN(C)CCCSc1ccccc1NC(=O)/C=C/c1ccccc1")
"n"
>>> class_name("CCCN1CCCC[C@H]1C(=O)Nc1c(C)cccc1C")
"n"
>>> class_name("CCOC(=O)c1cccc(N)c1")
"n"
>>> class_name("CCN(CC)CCNC(=O)c1cc(S(C)(=O)=O)ccc1OC")
"n"
>>> class_name("Cc1cc2c(cc1S(N)(=O)=O)S(=O)(=O)CCC2")
"n"
>>> class_name("CCCC(=O)O[C@]1(C(=O)CO)CC[C@H]2[C@@H]3CCC4=CC(=O)CC[C@]4(C)[C@H]3[C@@H](O)C[C@@]21C")
"n"
>>> class_name("C[C@H](NC(CCc1ccccc1)C(=O)O)C(=O)N1CCC[C@H]1C(=O)O (some centres undefined)")
"n"
>>> class_name("N[C@@H](C(=O)N[C@@H]1C(=O)N2C(C(=O)O)=C(Cl)CS[C@H]12)c1ccccc1")
"n"
>>> class_name("CCN(Cc1ccncc1)C(=O)C(CO)c1ccccc1 (centres undefined)")
"n"
>>> class_name("Cc1nc2c([nH]1)c(=O)n(C)c(=O)n2Cc1ccco1")
"n"
>>> class_name("CN(C(=O)c1c(O)c2ccccc2n(C)c1=O)c1ccccc1")
"n"
